Molecular target: UniProt P29274
Assay: Inhibition of cAMP production in HEK cells
Assay type: cell-based
Conditions: IC50 (nM) (3 nM NECA as agonist, 0.1% BSA), HEK-293 cells with A2A receptor, 3 nM NECA as agonist, 0.1% BSA
Protocol: When the A2A receptor is activated, is induces the production of cAMP. HEK-293 cells with a stable transfection of A2A receptor were bought from PerkinElmer® (# ES-011-C). […] Fresh media without the selection marker was added on the day immediately before the experiment to stop selection pressure. […] Compounds of the present invention were diluted 100× in either of the buffers depending on the assay performed. […] The TR-FRET signal was measured after 1 hour using a Spectramax Paradigm (Molecular Devices).
Measured IC50 accompanies every entry in the list below.
Kindly provide the numeric value in nM only, without the unit symbol.

[Q] Give the measured IC50 for CC(C)(O)COc1ccc(N2CCN(CCn3c(=O)sc4c3nc(N)n3nc(-c5ccco5)nc43)CC2)c(F)c1
[A] 0.4

API: the following record is the query input.
[Q] Give the measured IC50 for Nc1nc2c(sc(=O)n2CCN2CCN(c3ccc(OC4CNC4)cc3)CC2)c2nc(-c3ccco3)nn12
[A] 0.7

---

test: in vitro; conditions: human, Caco-2, pH 7.4
Quick rule for you: efflux ratio at 120 min, 2 μM under 200 gets Y, anything else gets N.

[Q] Given the entry CC(C)(O)c1ccc(N2CCN(CCn3c(=O)sc4c3nc(N)n3nc(-c5ccco5)nc43)CC2)c(F)c1 , would its reported efflux ratio at 120 min, 2 μM be below 200?
[A] Y

API: the following record is the query input.
[Q] Given the entry C[S@@+]([O-])CCNC(=O)c1cc(N2CCN(CCn3c(=O)sc4c3nc(N)n3nc(-c5ccco5)nc43)CC2)c(F)cc1F , would its reported efflux ratio at 120 min, 2 μM be below 200?
[A] N

---

target: A2A receptor (Homo sapiens); assay: Inhibition of cAMP production in HEK cells; type: cell-based; conditions: IC50 (nM) (5 nM NECA as agonist, 2% HSA), HEK-293 cells with A2A receptor, 5 nM NECA as agonist, 2% HSA
QUANTITY NAME: log10(IC50) (log10 of the value in nM)
Could you please treat all values as log10 of IC50 in nM?

// below: answered compounds
[Q] Determine reported log10(IC50) for Cn1cnc(COc2ccc(N3CCN(CCn4c(=O)sc5c4nc(N)n4nc(-c6ccco6)nc54)CC3)c(F)c2)n1 [Compound 67] ; test system: A2A receptor (Homo sapiens).
[A] 0.95

[Q] Determine reported log10(IC50) for CNCCN(C)C(=O)c1ccc(N2CCN(CCn3c(=O)sc4c3nc(N)n3nc(-c5ccco5)nc43)CC2)c(F)c1 [Compound 55] ; test system: A2A receptor (Homo sapiens).
[A] 0.30

[Q] Determine reported log10(IC50) for NC(=O)c1ccc(N2CCN(CCn3c(=O)sc4c3nc(N)n3nc(-c5ccco5)nc43)CC2)cc1 [Compound 14] ; test system: A2A receptor (Homo sapiens).
[A] 1.04

[Q] Determine reported log10(IC50) for Nc1nc2c(sc(=O)n2CCN2CCN(c3cc(OCCCC(=O)O)c(F)cc3F)CC2)c2nc(-c3ccco3)nn12 [Compound 65] ; test system: A2A receptor (Homo sapiens).
[A] 1.43

[Q] Determine reported log10(IC50) for NCCNC(=O)c1ccc(N2CCN(CCn3c(=O)sc4c3nc(N)n3nc(-c5ccco5)nc43)CC2)c(F)c1 [Compound 30] ; test system: A2A receptor (Homo sapiens).
[A] 0.00

Others:
[Q] Determine reported log10(IC50) for Nc1nc2c(sc(=O)n2CCN2CCN(c3ccc(OCc4c[nH]nn4)cc3F)CC2)c2nc(-c3ccco3)nn12 [Compound 1] ; test system: A2A receptor (Homo sapiens).
[A] 0.95

[Q] Determine reported log10(IC50) for Nc1nc2c(sc(=O)n2CCN2CCN(c3ccc(OCc4n[nH]c(=O)o4)cc3F)CC2)c2nc(-c3ccco3)nn12 [Compound 2] ; test system: A2A receptor (Homo sapiens).
[A] 1.23

---

biological target: UniProtKB P29274; assay: Inhibition of cAMP production in HEK cells; type: cell-based; details: IC50 (nM) (5 μM Adenosine as agonist, 2.0% HSA), HEK-293 cells with A2A receptor, 5 μM Adenosine as agonist, 2.0% HSA
Would you mind classing the entries by IC50? Ranges: lower bin (below 100 nM), middle bin (100 nM to below 400 nM), upper bin (400 nM or more)

[Q] Form: Item = NCCOc1ccc(N2CCN(CCn3c(=O)sc4c3nc(N)n3nc(-c5ccco5)nc43)CC2)cc1 [Compound 13] ; Class = ?
[A] lower bin

[Q] Form: Item = NCCNC(=O)c1ccc(N2CCN(CCn3c(=O)sc4c3nc(N)n3nc(-c5ccco5)nc43)CC2)c(F)c1 [Compound 30] ; Class = ?
[A] lower bin

[Q] Form: Item = C[S@+]([O-])c1ccc(N2CCN(CCn3c(=O)sc4c3nc(N)n3nc(-c5ccco5)nc43)CC2)c(F)c1 (single isomer, unassigned) [Compound 120] ; Class = ?
[A] middle bin

[Q] Form: Item = Nc1nc2c(sc(=O)n2CCN2CCN(c3ccc(C(=O)NCCN4CCOCC4)cc3F)CC2)c2nc(-c3ccco3)nn12 [Compound 106] ; Class = ?
[A] middle bin

[Q] Form: Item = Nc1nc2c(sc(=O)n2CCN2CCN(c3ccc(OCC(=O)N4CCNCC4)cc3F)CC2)c2nc(-c3ccco3)nn12 [Compound 24] ; Class = ?
[A] middle bin

[Q] Form: Item = CN(C)CCNC(=O)COc1cc(N2CCN(CCn3c(=O)sc4c3nc(N)n3nc(-c5ccco5)nc43)CC2)c(F)cc1F [Compound 63] ; Class = ?
[A] lower bin

[Q] Form: Item = Nc1nc2c(sc(=O)n2CCN2CCN(c3cc4c(cc3F)NC(=O)C4)CC2)c2nc(-c3ccco3)nn12 [Compound 79] ; Class = ?
[A] lower bin

---

molecular target: A2A receptor (Homo sapiens, UniProt P29274); experiment: Human IL-2 T cell assay (restoration of IL-2 production in CGS-21680-treated CD3+ T cells); type: cell-based; parameters: endogenous in cells; host or cells: human CD3+ T cells isolated from venous blood of healthy volunteers; details: IC50 (nM) (500 nM CGS-21680 as agonist, 50% HSA), restoration of IL-2 production, human CD3+ T cells, anti-CD3/CD28 beads, 500 nM CGS-21680, 50% HSA, 72 hours
Sequence (P29274 whole entry): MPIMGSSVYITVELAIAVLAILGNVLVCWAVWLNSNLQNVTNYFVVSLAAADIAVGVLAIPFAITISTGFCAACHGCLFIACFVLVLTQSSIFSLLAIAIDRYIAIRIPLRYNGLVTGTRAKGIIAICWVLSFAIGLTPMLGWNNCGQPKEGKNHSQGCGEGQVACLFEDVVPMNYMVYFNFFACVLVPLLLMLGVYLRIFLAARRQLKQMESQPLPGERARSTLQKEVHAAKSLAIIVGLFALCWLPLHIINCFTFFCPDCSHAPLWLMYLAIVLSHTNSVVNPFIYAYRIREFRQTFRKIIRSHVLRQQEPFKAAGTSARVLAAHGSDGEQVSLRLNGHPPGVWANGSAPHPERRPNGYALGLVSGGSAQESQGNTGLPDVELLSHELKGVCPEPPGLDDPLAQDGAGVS
Measured IC50 accompanies every entry in the list below.
Kindly provide the numeric value in nM only, without the unit symbol.

// below: answered compounds
[Q] Give the measured IC50 for CC(C)(Oc1ccc(N2CCN(CCn3c(=O)sc4c3nc(N)n3nc(-c5ccco5)nc43)CC2)c(F)c1)C(=O)O [Compound 39]
[A] 12

[Q] Give the measured IC50 for CNCCNC(=O)c1ccc(N2CCN(CCn3c(=O)sc4c3nc(N)n3nc(-c5ccco5)nc43)CC2)c(F)c1 [Compound 31]
[A] 5.4

[Q] Give the measured IC50 for CNCCNC(=O)COc1ccc(N2CCN(CCn3c(=O)sc4c3nc(N)n3nc(-c5ccco5)nc43)CC2)c(F)c1 [Compound 50]
[A] 2.2

API: the following record is the query input.
[Q] Give the measured IC50 for Nc1nc2c(sc(=O)n2CCN2CCN(c3ccc(OCC(=O)O)cc3F)CC2)c2nc(-c3ccco3)nn12 [Compound 35]
[A] 0.5

---

Measured log10 of IC50 accompanies every entry in the list below.
target: A2A receptor (Homo sapiens); experiment: Inhibition of cAMP production in HEK cells; assay type: cell-based; settings: IC50 (nM) (5 nM NECA as agonist, 2% HSA), HEK-293 cells with A2A receptor, 5 nM NECA as agonist, 2% HSA
Could you please treat all values as log10 of IC50 in nM?

// below: answered molecules
[Q] Give the measured log10 of IC50 for CNCCNC(=O)c1ccc(N2CCN(CCn3c(=O)sc4c3nc(N)n3nc(-c5ccco5)nc43)CC2)c(F)c1 [Compound 31]
[A] 0.00

[Q] Give the measured log10 of IC50 for Nc1nc2c(sc(=O)n2CCN2CCN(c3ccc(CCC(=O)O)cc3F)CC2)c2nc(-c3ccco3)nn12 [Compound 40]
[A] 0.85

[Q] Give the measured log10 of IC50 for Nc1nc2c(sc(=O)n2CCN2CCN(c3ccc(S(N)(=O)=O)cc3)CC2)c2nc(-c3ccco3)nn12 [Compound 18]
[A] 1.93

[Q] Give the measured log10 of IC50 for CS(=O)(=O)CCOc1cc(N2CCN(CCn3c(=O)sc4c3nc(N)n3nc(-c5ccco5)nc43)CC2)c(F)cc1F [Compound 77]
[A] 0.48

[Q] Give the measured log10 of IC50 for Nc1nc2c(sc(=O)n2CCN2CCN(c3ccncc3)CC2)c2nc(-c3ccco3)nn12 [Compound 75]
[A] 2.00

Others:
[Q] Give the measured log10 of IC50 for NCCOc1ccc(N2CCN(CCn3c(=O)sc4c3nc(N)n3nc(-c5ccco5)nc43)CC2)cc1 [Compound 13]
[A] 0.30

[Q] Give the measured log10 of IC50 for NCC(=O)NCCOc1ccc(N2CCN(CCn3c(=O)sc4c3nc(N)n3nc(-c5ccco5)nc43)CC2)c(F)c1 [Compound 71]
[A] 0.48
